pIC50: −log10 of the molar value.
pIC50, tCD14-His6 (truncated CD14) (Homo sapiens, UniProt P08571), per-entry values.

structure-string	pIC50
CCCCCCCCCCCCCCO[C@H]1[C@@H](OC)O[C@H](CN)[C@@H](O)[C@@H]1OCCCCCCCCCCCCCC	5.70
CCCCCCCCCCCCCCOc1ccc(C[N+](C)(C)C2CCCC2)cc1OCCCCCCCCCCCCCC	6.40
CCCCCCCCCCCCCCO[C@H]1[C@@H](OC)O[C@H](C[N+](C)(C)C2CCCC2)[C@@H](O)[C@@H]1OCCCCCCCCCCCCCC	6.10
